Reported EC50 values follow for various binders
- test target: T1, cynomolgus CD3 (UniProt Q95LI5 22-198)
- T1 chain: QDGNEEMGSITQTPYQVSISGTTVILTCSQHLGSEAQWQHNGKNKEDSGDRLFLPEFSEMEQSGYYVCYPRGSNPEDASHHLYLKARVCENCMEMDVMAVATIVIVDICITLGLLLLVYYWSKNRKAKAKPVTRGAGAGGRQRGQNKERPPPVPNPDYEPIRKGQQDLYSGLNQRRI
- test name: FACS binding, HSC-F cells
Give a bare numeral; the unit µg/mL is implied.

binder	EC50 / µg/mL
IgG1-CD3-LFLEDA (antibody, V domains shown) VH: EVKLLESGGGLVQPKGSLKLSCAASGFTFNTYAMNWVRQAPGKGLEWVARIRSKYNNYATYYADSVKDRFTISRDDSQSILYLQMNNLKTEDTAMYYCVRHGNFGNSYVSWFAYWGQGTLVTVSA VL: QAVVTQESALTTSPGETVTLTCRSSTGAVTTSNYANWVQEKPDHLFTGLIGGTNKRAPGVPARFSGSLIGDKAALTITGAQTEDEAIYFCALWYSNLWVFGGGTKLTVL	0.06
IgG1-huCD3-H1L3-LFLEDA (antibody, V domains shown) VH: EVKLVESGGGLVQPGGSLRLSCAASGFTFNTYAMNWVRQAPGKGLEWVARIRSKYNNYATYYADSVKDRFTISRDDSKSSLYLQMNNLKTEDTAMYYCVRHGNFGNSYVSWFAYWGQGTLVTVSS VL: QAVVTQEPSFSVSPGGTVTLTCRSSTGAVTTSNYANWVQQTPGQAFRGLIGGTNKRAPGVPARFSGSILGNKAALTITGAQADDESDYYCALWYSNLWVFGGGTKLTVL	0.03
IgG1-huCD3-H3L3-LFLEDA (antibody, V domains shown) VH: EVKLVESGGGLVKPGRSLRLSCAASGFTFNTYAMNWVRQAPGKGLEWVARIRSKYNNYATYYADSVKDRFTISRDDSKSILYLQMNSLKTEDTAMYYCVRHGNFGNSYVSWFAYWGQGTLVTVSS VL: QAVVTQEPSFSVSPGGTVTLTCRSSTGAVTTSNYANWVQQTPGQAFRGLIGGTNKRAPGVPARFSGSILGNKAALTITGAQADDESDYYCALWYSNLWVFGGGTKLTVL	0.03

Here is the next item to consider.
Give the value of EC50 reported for the following: IgG1-huCD3-H4L3-LFLEDA (antibody, V domains shown) VH: EVKLVESGGGLVKPGRSLRLSCAASGFTFNTYAMNWVRQAPGKGLEWVARIRSKYNNYATYYADSVKDRFTISRDDSKSILYLQMNSLKTEDTAMYYCVRHGNFGNSYVSWFAYWGQGTMVTVSS VL: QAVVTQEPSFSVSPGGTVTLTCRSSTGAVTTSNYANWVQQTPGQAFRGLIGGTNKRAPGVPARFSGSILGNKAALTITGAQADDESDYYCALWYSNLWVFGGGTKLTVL
0.02
